# tested system: T1, recombinant human CD3 epsilon/delta heterodimer (human, UniProt P07766 23-126; P04234 22-105)
# T1 construct: Recombinant protein in solution (200-50 nM) in the Octet assay; also called hCD3 E/D; human CD3E/D
# T1 sequence (P07766 23-126, stated change not applied, chain 1 of 2): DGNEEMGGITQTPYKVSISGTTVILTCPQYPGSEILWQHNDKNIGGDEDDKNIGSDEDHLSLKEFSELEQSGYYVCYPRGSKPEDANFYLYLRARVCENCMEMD
# T1 sequence (P04234 22-105, stated change not applied, chain 2 of 2): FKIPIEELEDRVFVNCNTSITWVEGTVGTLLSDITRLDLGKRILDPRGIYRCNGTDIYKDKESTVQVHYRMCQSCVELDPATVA
# test details: Octet BLI, mAb on FAB2G sensor, hCD3 E/D 200-50 nM; R^2 0.99
recorded metric: Response
Form rule: numeric answer, no unit written next to it.

query: Find the recorded Response belonging to ABL-CD3-10 (antibody, V domains shown, Chimeric hybridoma mAb: human V, CH1, upper hinge; mouse middle hinge, CH2, CH3) VH: QVQLQQSGPGLVKPSQTLSLTCAISGDSVSCNSVAWNWIRQSPSRGLEWLGRTYYRSKWHNEYAVSVKSRINIKPDTSKNQVSLQLKSVTPEDTAVYYCARERKWELFLDYWGQGTLVTVSS VL: NFMLTQPHSVSESPGKTVTISCTRSSGSIASNYVQWYQQRPGSSPTTMIYEDNQRPSGVPDRFSGSIDSSSNSASLTISGLKTEDEADYYCQSLDSSSVVFGGGTKLTVL and report it.
result: 0.52

query: Then ABL-CD3-48 (antibody, V domains shown, Chimeric hybridoma mAb: human V, CH1, upper hinge; mouse middle hinge, CH2, CH3) VH: EVQLVESGGGLVKPGGSLRLSCAASGFTFSSYTMNWVRQAPGKGLEWVSSISGSGSYIYYADSVKGRFTISRDNAKNSLYLQMNSLRAEDTAVYYCAREPPTLGMDYWGQGTLVTVSS VL: NFMLTQPHSVSESPGKTVTISCTRSSGSIASNYVQWYQQRPGSSPTTVIYEDNQRPSGVPDRFSGSIDSSSNSASLTISGLKTEDEADYYCQSFDSSNRVFGGGTKLTVL ?
result: 1.17

query: Same question for ABL-CD3-5 (antibody, V domains shown, Chimeric hybridoma mAb: human V, CH1, upper hinge; mouse middle hinge, CH2, CH3) VH: EVQLVESGGGLVQPGGSLRLSCAASGFTFSRYSMNWVRQAPGKGLEWVSYISSSSSSIYYADSVKGRFTISRDNAKNSLYLQMNSLRDEDTAVYYCARDRRATLDYWGQGTLVTVSS VL: NFMLTQPHSVSESPGKTVTISCTRSSGSIASNYVQWYQQRPGSSPTTVIYEDNQRPSGVPDRFSGSIDSSSNSASLTISGLKTEDEADYYCQSYDSSNHVFGGGTKLTVL please.
result: 0.36

query: Same again, this time with ABL-CD3-7 (antibody, V domains shown, Chimeric hybridoma mAb: human V, CH1, upper hinge; mouse middle hinge, CH2, CH3) VH: EVQLVESGGGLVKPGGSLRLSCAASGFTFSRYSMNWVRQAPGKGLKWVSSISSSGSYKYYADSVKGRFTISRDNAKNSLYLQMNSLRAEDTAVYYCAREPPTLGMDYWGQGTLVTVSS VL: NFMLTQPHSVSESPGKTVTISCTRSSGSIASNYVQWYQQRPGSSPTTVIYEDNQRPSGVPDRFSGSIDSSSNSASLTISGLKTEDEADYYCQSFDNSNRVFGGGTKLTVL
result: 0.86

query: Now consider ABL-CD3-63 (antibody, V domains shown, Chimeric hybridoma mAb: human V, CH1, upper hinge; mouse middle hinge, CH2, CH3) VH: QVQLQESGPGLVKPSETLSLTCTVSGGSISSYYWSWIRQPAGKGLEWIGRIYTSGSTKYNPSLKSRVTMSVDTSKNQFSLKLISVTAADTAVYFCARERIRDLYFDYWGQGTLVTVSS VL: NFMLTQPHSVSESPGKTVTISCTRTSGSIASNYVQWYQQRPGSSPTTVIYEDNQRPSGVPDRFSGSIDSSSNSASLTISGLKTEDEAAYYCQSYDRSNRVFGGGTKLTVL and answer again.
result: 0.89
